- Assay Name: melting temperature; fluorescence melt of hairpins on a sequencing array, two-state fit, raised by 9.35 °C to match UV melts
- Test Context: sodium 0.088 M
Tm: recorded values

Record excerpt, results attached:
| Sequence Entry | Tm |
| --- | --- |
| GATCTGCTTCAGATC ((((((...)))))) | 48.7 °C |
| GCTCGGCGAAAGCCTCGC ((..(((....)))..)) | 48.7 °C |
| GATCGACGACTCGATC ((((((....)))))) | 48.7 °C |
| GATCAATACATTGATC ((((((....)))))) | 49.2 °C |
| GCTGAGGGAAACCCCAGC ((((.((....)).)))) | 51.4 °C |

Qu. So what does the record say about Tm for GGGATGGGAAACTATCCC (((((.(....).))))) ?
Ans. 49.8 °C

Qu. So what does the record say about Tm for GGAGCTGGAAACAGTTCC (((.(((....))).))) ?
Ans. 50 °C

====

- Assay Name: melting temperature; fluorescence melt of hairpins on a sequencing array, two-state fit, raised by 9.35 °C to match UV melts
- Test Context: sodium 0.088 M
Tm: recorded values
Kindly answer with a numeric value in °C, unit omitted.

Record excerpt, results attached:
| Sequence Entry | Assay Endpoint | Measurement |
| --- | --- | --- |
| GATCATCGCGATGATC ((((((....)))))) | Tm | 59.7 |
| GAAGCACGAAAGTGTTTC (((.(((....))).))) | Tm | 51.1 |
| GCCAACGAAAGTTCTGGC ((((((....)))..))) | Tm | 38 |

Qu. So what does the record say about Tm for GATGCCGAAAGGCCAATC ((((((....)))..))) ?
Ans. 29.4

Qu. So what does the record say about Tm for GCTTGGCGAAAGCATAGC (((..((....))..))) ?
Ans. 46.2

Qu. So what does the record say about Tm for GCTGGCGAAAGCCGGAGC ((((((....)))..))) ?
Ans. 56.4

====

Tm: recorded values
- Assay Name: melting temperature; fluorescence melt of hairpins on a sequencing array, two-state fit, raised by 9.35 °C to match UV melts
- Test Context: sodium 0.088 M
Kindly answer with a numeric value in °C, unit omitted.

| Sequence Entry | Tm, °C |
| --- | --- |
| GTCGTCGGAAACGACAAC ((.((((....)))).)) | 47.4 |
| GTTCTAGGAAACCAGAAC (((((.(....).))))) | 35.6 |
| GGGTCCGAAAGGAACCC ((((((....))).))) | 64.1 |
| GTATGCGGAAACACATAC (((((.(....).))))) | 39.8 |

Qu. So what does the record say about Tm for CGGGAGCGGAAACGCCCG (((..(((....)))))) ?
Ans. 53.6

Qu. So what does the record say about Tm for GTATGGGAAACCATAC ((((((....)))))) ?
Ans. 50.8

Qu. So what does the record say about Tm for GGCGTGGGAAACCGTGCC (((..((....))..))) ?
Ans. 49.1

Qu. So what does the record say about Tm for GATCGATTTATCGATC ((((((....)))))) ?
Ans. 59.7

Qu. So what does the record say about Tm for GGTAACGGAAACGTTATC (.(((((....))))).) ?
Ans. 46.4

Qu. So what does the record say about Tm for GCGACCGAAAGGTTCCGC ((((((....)))..))) ?
Ans. 43.5

Qu. So what does the record say about Tm for GCCCAGGGAAACCCGGAC (.((.((....)).)).) ?
Ans. 28.6

Qu. So what does the record say about Tm for GTGGGCGGAAACGCCTGC (..((((....))))..) ?
Ans. 47

Qu. So what does the record say about Tm for GGTCTTGGAAACAAGGCC ((.((((....)))).)) ?
Ans. 54.7

Qu. So what does the record say about Tm for GTTCTGACGAAAGTCAAC (((..(((....)))))) ?
Ans. 25.2

Qu. So what does the record say about Tm for GTCACCGAAAGGTACGAC ((((((....)))..))) ?
Ans. 41.2

Qu. So what does the record say about Tm for GATCTTGATCAAGATC ((((((....)))))) ?
Ans. 49.7

Qu. So what does the record say about Tm for GACTATGGAAACGTAGTC (((((.(....).))))) ?
Ans. 42

Qu. So what does the record say about Tm for CGTCCGGAAACGGAGACG ((((((....)))..))) ?
Ans. 45.3

Qu. So what does the record say about Tm for GTGCTCCCGAAAGGGCAC (((..(((....)))))) ?
Ans. 49.8

Qu. So what does the record say about Tm for GCCGGTCGAAAGACGGGC (((.(((....))).))) ?
Ans. 63.9

Qu. So what does the record say about Tm for GCTTAGGGAAACCCAAGC ((((.((....)).)))) ?
Ans. 44

Qu. So what does the record say about Tm for GGCGTCGAAAGACGCGCC ((((((....)))..))) ?
Ans. 62.7

Qu. So what does the record say about Tm for GGGATCGAAAGATCGCCC ((((((....)))..))) ?
Ans. 47.2

====

- Assay Name: melting temperature; fluorescence melt of hairpins on a sequencing array, two-state fit, raised by 9.35 °C to match UV melts
- Test Context: sodium 0.088 M
Tm: recorded values
Kindly answer with a numeric value in °C, unit omitted.

Record excerpt, results attached:
| Sequence Entry | Tm (°C) |
| --- | --- |
| CGAGGCGGAAACGCTTCG (((.(((....))).))) | 55.3 |
| GCTGGGCGAAAGCCAGC (((.(((....)))))) | 68.5 |
| GTAACTCGAAAGAGCTAC (((.(((....))).))) | 41.9 |

We now examine a further sequence.
Qu. So what does the record say about Tm for GATCAGCAGGCTGATC ((((((....)))))) ?
Ans. 59.2

====

- Assay Name: melting temperature; fluorescence melt of hairpins on a sequencing array, two-state fit, raised by 9.35 °C to match UV melts
- Test Context: sodium 0.088 M
Assay Endpoint: Tm (°C)
Kindly answer with a numeric value in °C, unit omitted.

Record excerpt, results attached:
| Sequence Entry | Tm / °C |
| --- | --- |
| GGTGTGGGAAACCACATC (.(((((....))))).) | 51.2 |
| GATCAGCCGACTGATC ((((((....)))))) | 49.6 |
| GCTGTGCGAAAGCAGGGC ((..(((....)))..)) | 50.3 |
| GATCTTTTCAAAGATC ((((((....)))))) | 48.7 |
| GCACAAGGAAACCTGTGC (((((.(....).))))) | 50.5 |
| GATCTCTAATGAGATC ((((((....)))))) | 49.9 |
| GCGACCTCGAAAGAGCGC (((..(((....)))))) | 49.1 |
| GTTGACCGAAAGGTAAAC (((.(((....))).))) | 48.7 |

We now examine a further sequence.
Qu. So what does the record say about Tm for GGTGCCGAAAGGCAAACC ((((((....)))..))) ?
Ans. 50.9

====

- Assay Name: melting temperature; fluorescence melt of hairpins on a sequencing array, two-state fit, raised by 9.35 °C to match UV melts
- Test Context: sodium 0.088 M
Tm: recorded values
Kindly answer with a numeric value in °C, unit omitted.

| Sequence Entry | Readout Unit | Tm |
| --- | --- | --- |
| GCAAAACCGAAAGGTTGC (((..(((....)))))) | °C | 50 |
| GGTACCGAAAGGTAGACC ((((((....)))..))) | °C | 41 |
| GTGTACGAAAGTACGCAC ((((((....)))..))) | °C | 49.9 |
| TTACCGAAAGGTAA (((((....))))) | °C | 50.4 |
| GTCACCGAAAGGTGGGAC ((((((....)))..))) | °C | 39 |

Qu. So what does the record say about Tm for GCACTGCGAAAGCAATGC (((.(((....))).))) ?
Ans. 51.5

Qu. So what does the record say about Tm for GTCACCGAAAGGTATGAC ((((((....)))..))) ?
Ans. 40.1

Qu. So what does the record say about Tm for GATCGATTGCTCGATC ((((((....)))))) ?
Ans. 51.2

Qu. So what does the record say about Tm for GGCGACGAAAGTCCGGCC ((((((....)))..))) ?
Ans. 51.5
